System: SNB-75 CNS
Experiment: NCI-60 one-dose screen, 48 h (100 = growth as untreated, 0 = no growth, -100 = all killed)
Conditions: 10 µM unless noted
About 83,000 compounds went through this panel and 20% of them were active in at least one assay; those are over-represented in the sample as a whole.
Assay Readout: growth (%)
The response must be a number in % with no trailing unit.

Previously resolved entries follow.
*Q* Under SNB-75 CNS: report growth of CN1CCN(C(=O)[C@@]2(C)CC[C@]3(C)CC[C@]4(C)C(=CC[C@@H]5[C@@]6(C)CC[C@H](OC(=O)c7cccnc7)C(C)(C)[C@@H]6CC[C@]54C)[C@@H]3C2)CC1 .
*A* 90.4

*Q* Under SNB-75 CNS: report growth of Cc1cc(NC(=O)CNc2nc(Oc3ccc(F)cc3)nc(-c3ccc(F)cc3)n2)ccc1Cl .
*A* 87.8

*Q* Under SNB-75 CNS: report growth of O=C(O)CCNC1CCCCC1 .
*A* 90.3

*Q* Under SNB-75 CNS: report growth of CC(C)(C)c1ccc(O)c(Cc2cc(C(C)(C)C)ccc2O)c1 .
*A* 89.2

*Q* Under SNB-75 CNS: report growth of COc1ccc(-n2cc(COc3ccc4c5ccnc(C)c5n(CC(C)C)c4c3)nn2)cc1 .
*A* 61.8

New cases:
*Q* Under SNB-75 CNS: report growth of CC1(C)CC[C@]2(c3nnc(-c4ccncc4)o3)CC[C@]3(C)C(=CC[C@@H]4[C@@]5(C)CCC(=O)C(C)(C)[C@@H]5CC[C@]43C)[C@@H]2C1 .
*A* 88.7

----------
System: SK-MEL-5 melanoma
Assay: NCI-60 one-dose screen, 48 h
Conditions: 10 µM unless noted
Protocol: Growth inhibition of the SK-MEL-5 human tumor cell line is measured as a screen for anti-cancer activity. Cells are grown in 96 well plates and exposed to the test compound for 48 hours. Compounds are tested at a single concentration, which is 10^-5 M for most compounds. The reported endpoint is percent growth (GI% or GIPRCNT), where numbers from 0 - 100% represent growth inhibition, and numbers from -100% - 0 represent cell death. For example, a value of 40 represents 60% growth inhibition. […]
This is part of a sample that, as a whole, favours compounds with a hit. Of some 83,000 tested, about 20% had one in any assay. Active and inactive are the calls of the source. How the source made its calls: active means growth percent below 10; inactive means the rest.
Parameter call: string, one of active, inactive

Solved entries (count: 6):
*Q* I'd appreciate the recorded outcome for N#Cc1c(-c2ccc(F)cc2)nc(N/N=C/c2cccc(O)c2)nc1N1CCOCC1 from this test.
*A* inactive

*Q* I'd appreciate the recorded outcome for COc1ccc(NC(=O)Nc2ccc(Nc3nc(C)cc(Nc4ccc(C)cc4)n3)cc2)cc1 from this test.
*A* active

*Q* I'd appreciate the recorded outcome for C#CC[C@@H]1C[C@]2(C)[C@H]3CC[C@@H]4[C@H]5[C@H](C(=C)C)CC[C@]5(C(=O)O)CC[C@@]4(C)[C@]3(C)CC[C@H]2C(C)(C)[C@H]1O from this test.
*A* inactive

*Q* I'd appreciate the recorded outcome for CCOC(=O)C1=C(C)n2nc(CC#N)c(C#N)c2NC1c1ccc(Cl)cc1 (stereo not given) from this test.
*A* inactive

*Q* I'd appreciate the recorded outcome for Cc1nc(C)c(C)nc1C from this test.
*A* inactive

*Q* I'd appreciate the recorded outcome for COC(=O)c1nc(-c2ccccc2)oc1S(=O)(=O)n1nc(C)cc1N from this test.
*A* inactive

New cases:
*Q* I'd appreciate the recorded outcome for O=C(O)CCNC1CCCCC1 from this test.
*A* inactive

*Q* I'd appreciate the recorded outcome for NCCN1CCNCC1 from this test.
*A* inactive

*Q* I'd appreciate the recorded outcome for CN1CCN(C(=O)[C@@]2(C)CC[C@]3(C)CC[C@]4(C)C(=CC[C@@H]5[C@@]6(C)CC[C@H](OC(=O)c7cccnc7)C(C)(C)[C@@H]6CC[C@]54C)[C@@H]3C2)CC1 from this test.
*A* inactive

*Q* I'd appreciate the recorded outcome for CN(C)CSc1nc2ccccc2s1 from this test.
*A* inactive

*Q* I'd appreciate the recorded outcome for CCSc1ccc(C2C(Br)C(=O)N2c2cc(OC)c(OC)c(OC)c2)cc1 (stereo not given) from this test.
*A* active

*Q* I'd appreciate the recorded outcome for Cc1cccc(C)c1NCc1nnc(-c2ccc(O)cc2)o1 from this test.
*A* inactive

*Q* I'd appreciate the recorded outcome for CC(=O)Nc1c(C(=O)Nc2ccccc2)sc2nc3c(cc12)C(OC(C)=O)CCC3 (stereo not given) from this test.
*A* inactive

*Q* I'd appreciate the recorded outcome for c1ccc2nc(N3CCOCC3)c(N3CCCCC3)nc2c1 from this test.
*A* inactive

*Q* I'd appreciate the recorded outcome for CCOC(=O)c1c(C)nc2c(c1N)CC(=O)N2CCc1ccccc1 from this test.
*A* active

*Q* I'd appreciate the recorded outcome for C[C@H](Oc1cc(-c2cnn(C3CCNCC3)c2)cnc1N)c1c(Cl)ccc(F)c1Cl from this test.
*A* inactive

*Q* I'd appreciate the recorded outcome for COC(=O)CCc1n(Cc2ccc3ccccc3c2)c2ccccc2[n+]1Cc1ccc2ccccc2c1 from this test.
*A* active

*Q* I'd appreciate the recorded outcome for C=C(C)[C@@H]1CC[C@]2(C(=O)OCCOCCOCC[P+](c3ccccc3)(c3ccccc3)c3ccccc3)CC[C@]3(C)[C@H](CC[C@@H]4[C@@]5(C)CC[C@H](OC(=O)C(Cl)Cl)C(C)(C)[C@@H]5CC[C@]43C)[C@@H]12 from this test.
*A* active

*Q* I'd appreciate the recorded outcome for COc1ccc(NC(=O)c2sc3nc(C)c(C(C)=O)cc3c2N)cc1 from this test.
*A* inactive

*Q* I'd appreciate the recorded outcome for COc1ccc(-n2cc(COc3ccc4c5ccnc(C)c5n(CC(C)C)c4c3)nn2)cc1 from this test.
*A* inactive

*Q* I'd appreciate the recorded outcome for Nc1c(C(=O)Nc2ccccc2Cl)sc2nc3c(cc12)CN(Cc1ccccc1)CC3 from this test.
*A* inactive

*Q* I'd appreciate the recorded outcome for C=C(C)[C@@H]1CC[C@]2(C(=O)N3CCN(C)CC3)CC[C@]3(C)[C@H](CC[C@@H]4[C@@]5(C)C/C(=C/c6ccco6)C(=O)C(C)(C)[C@@H]5CC[C@]43C)[C@@H]12 from this test.
*A* inactive

*Q* I'd appreciate the recorded outcome for Sc1cccc2cccnc12 from this test.
*A* active

*Q* I'd appreciate the recorded outcome for NS(=O)(=O)c1ccc(-n2ncc(NC(=O)Nc3ccc(S(=O)(=O)Nc4nccs4)cc3)c2-c2ccccc2)cc1 from this test.
*A* inactive

*Q* I'd appreciate the recorded outcome for C=C(C)[C@@H]1CC[C@]2(C(=O)O)CC[C@]3(C)[C@H](CC[C@@H]4[C@@]5(C)C[C@@H](CC#Cc6ccccc6)C(=O)C(C)(C)[C@@H]5CC[C@]43C)[C@@H]12 from this test.
*A* inactive
